Target: CST (CTC1-STN1-TEN1) (human, UniProt Q2NKJ3;Q9H668;Q86WV5 1-1217;1-368;1-123)
Sequence (Q2NKJ3 whole entry, chain 1 of 3): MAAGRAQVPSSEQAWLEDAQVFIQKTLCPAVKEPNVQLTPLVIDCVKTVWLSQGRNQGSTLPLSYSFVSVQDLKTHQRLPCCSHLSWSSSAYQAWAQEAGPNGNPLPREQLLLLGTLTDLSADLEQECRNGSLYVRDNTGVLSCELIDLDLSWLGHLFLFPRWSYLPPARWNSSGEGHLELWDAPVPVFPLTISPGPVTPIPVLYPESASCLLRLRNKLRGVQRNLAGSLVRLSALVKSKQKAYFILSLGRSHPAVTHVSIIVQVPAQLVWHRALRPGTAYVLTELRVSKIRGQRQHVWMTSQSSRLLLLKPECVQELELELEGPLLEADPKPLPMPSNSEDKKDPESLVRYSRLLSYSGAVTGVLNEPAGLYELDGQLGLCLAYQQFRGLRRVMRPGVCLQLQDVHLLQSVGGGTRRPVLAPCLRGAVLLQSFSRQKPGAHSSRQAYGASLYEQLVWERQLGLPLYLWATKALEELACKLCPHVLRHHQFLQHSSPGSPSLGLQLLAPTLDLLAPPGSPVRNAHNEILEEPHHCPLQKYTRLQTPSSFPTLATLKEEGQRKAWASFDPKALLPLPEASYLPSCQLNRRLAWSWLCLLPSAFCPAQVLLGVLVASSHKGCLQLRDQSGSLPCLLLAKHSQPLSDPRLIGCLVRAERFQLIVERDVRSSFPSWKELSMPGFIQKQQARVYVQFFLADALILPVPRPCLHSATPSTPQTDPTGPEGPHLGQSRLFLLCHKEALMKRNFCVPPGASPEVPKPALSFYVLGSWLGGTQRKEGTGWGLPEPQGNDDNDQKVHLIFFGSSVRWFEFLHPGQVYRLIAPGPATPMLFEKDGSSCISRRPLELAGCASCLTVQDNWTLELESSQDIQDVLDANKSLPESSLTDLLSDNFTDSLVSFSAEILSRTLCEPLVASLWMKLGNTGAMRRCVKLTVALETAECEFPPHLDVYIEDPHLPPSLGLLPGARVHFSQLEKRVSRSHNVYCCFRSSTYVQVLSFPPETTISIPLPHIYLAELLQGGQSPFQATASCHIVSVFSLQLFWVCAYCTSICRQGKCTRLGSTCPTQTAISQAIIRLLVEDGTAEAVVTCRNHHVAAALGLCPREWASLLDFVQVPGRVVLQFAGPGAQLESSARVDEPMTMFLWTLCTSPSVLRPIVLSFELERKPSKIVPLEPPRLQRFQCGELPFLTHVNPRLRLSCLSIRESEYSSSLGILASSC
Sequence (Q9H668 whole entry, chain 2 of 3): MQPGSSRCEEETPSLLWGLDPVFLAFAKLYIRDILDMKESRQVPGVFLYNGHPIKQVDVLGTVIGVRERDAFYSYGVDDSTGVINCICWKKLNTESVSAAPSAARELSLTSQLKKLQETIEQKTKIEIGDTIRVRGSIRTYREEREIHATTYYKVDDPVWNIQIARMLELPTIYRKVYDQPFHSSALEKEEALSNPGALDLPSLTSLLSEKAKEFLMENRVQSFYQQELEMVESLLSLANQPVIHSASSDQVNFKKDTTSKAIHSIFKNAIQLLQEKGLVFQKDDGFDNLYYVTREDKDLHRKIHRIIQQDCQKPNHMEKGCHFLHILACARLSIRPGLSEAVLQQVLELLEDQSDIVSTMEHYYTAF
Sequence (Q86WV5 whole entry, chain 3 of 3): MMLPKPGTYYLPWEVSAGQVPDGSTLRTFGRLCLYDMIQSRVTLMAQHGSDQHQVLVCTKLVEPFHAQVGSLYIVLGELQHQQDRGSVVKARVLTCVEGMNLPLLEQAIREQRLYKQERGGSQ
Experiment: fluorescence anisotropy; 200 mM KCl; FA: 200 mM NaCl, KCl or LiCl, 20 mM HEPES pH 7.4, 1 mM DTT, 22-25 C, 375 or 750 pM oligo, Kd,app +/- SEM; EMSA: 20 mM HEPES pH 7.4, 200 mM KCl, 1 nM 32P oligo
Conditions: protein: recombinant; tags: 2xFLAG N-term on CTC1; 6xHis N-term on STN1 and TEN1; copies: 1;1;1; label: 5' fluorescein; intramolecular G4 at 3' end, 5' tail; linear in LiCl
experimentalEndpoint: Kd (nM)
Just the number please, in nM, no unit attached.

Prompt line: Can you share its Kd? I mean this binder: AGTGTGAGTGTGAGTGTTAGGGTTAGGGTTAGGGTTAGGG (structured_DNA) [Tel40 3' G4]
Response line: 3.4
